The measurements presented in this section are drawn from patent US7189689.

Biological target: T1, lecithin:cholesterol acyltransferase (LCAT), purified from human plasma (human, UniProt P04180 25-440)
T1 sequence (looked up): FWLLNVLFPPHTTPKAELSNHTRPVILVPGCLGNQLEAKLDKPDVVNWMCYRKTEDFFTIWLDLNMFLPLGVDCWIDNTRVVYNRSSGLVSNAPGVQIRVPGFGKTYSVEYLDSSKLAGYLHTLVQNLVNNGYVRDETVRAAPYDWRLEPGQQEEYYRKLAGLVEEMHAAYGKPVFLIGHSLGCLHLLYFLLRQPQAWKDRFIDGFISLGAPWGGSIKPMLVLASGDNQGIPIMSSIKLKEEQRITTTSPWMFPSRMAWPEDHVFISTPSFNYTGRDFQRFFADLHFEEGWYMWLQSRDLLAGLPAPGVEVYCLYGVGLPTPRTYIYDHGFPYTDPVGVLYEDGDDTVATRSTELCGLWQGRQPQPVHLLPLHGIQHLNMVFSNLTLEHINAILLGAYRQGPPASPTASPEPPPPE
Assay: cell-based or functional assay
metric_name: ACTIVITY (%) LCAT

binder	units	ACTIVITY (%) LCAT
EWLKAFYEKVLEKLKELF [peptide 244]	%	5

(a) EWLEAFYKKVLEKLKELF [peptide 242]
(b) DWFKAFYDKVFEKFKEFF [peptide 237]
(c) EWLKAFYKKVLEKLKELF [peptide 247]
## Task Order the records, beginning with the lowest ACTIVITY (%) LCAT and ending with the highest. Give the labels in the order specified.
## Result c, a, b
